Target: T1, human wt-ERβ LBD (estrogen receptor beta ligand-binding domain, amino acids 261-502) (human, UniProt Q92731 261-502)
T1 construct: Cloned into pET-32a; N-terminal thioredoxine-hexahistidine tag removed with TEV protease; not shown: thioredoxin, N-terminal, cleaved; His6, N-terminal, cleaved
T1 sequence (Q92731 261-502): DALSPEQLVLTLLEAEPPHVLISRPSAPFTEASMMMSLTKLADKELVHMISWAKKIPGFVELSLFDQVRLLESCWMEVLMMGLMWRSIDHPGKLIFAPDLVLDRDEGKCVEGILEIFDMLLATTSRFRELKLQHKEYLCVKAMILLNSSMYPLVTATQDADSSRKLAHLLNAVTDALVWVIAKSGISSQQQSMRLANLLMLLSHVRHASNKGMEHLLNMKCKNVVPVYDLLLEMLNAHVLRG
Test: fluorescence polarisation; fluorescence anisotropy; 4 nM fluorescein-SRC-1 NR2 peptide, LBD diluted 2-fold from 10 uM (ERα) or 20 uM (ERβ); with OHT (4-hydroxytamoxifen) at 20 uM (ERα) or 40 uM (ERβ); 20 mM Tris pH 8.0, 150 mM NaCl, 5 mM DTT, 10% glycerol
Conditions: both partners purified
Where no end group is shown, it is not given here. fluorescein = fluorescein label on the N-terminus of the peptide
parameter measured: pKd
// pKd: -log10(molar conc.)

For fluorescein-RHKILHRLLQEGS (also called SRC-1 NR2 peptide; fluorescein-labeled SRC-1 NR2 peptide; source: bought: EZbiolab) [fluorescein-RHKILHRLLQEGS peptide corresponding to the NR box 2-binding motif of SRC-1] the binder record lists pKd as 4.41
